test.details: growth suppression of yeast trafficking mutant, preliminary HTS, modulators of trafficking downstream of Golgi apparatus project, 1536-format plate, OD 615 nm (AID 637); also: test concentration not given here
assay.setup: yeast transport mutant growth, absorbance 615 nm, 18 h; hits give high values
assay.metric: inhibition (%)

molecule=Cc1cc(NC(=O)CSc2nc3c(c(-c4cccnc4)c2C#N)CCC3)no1 assay_metric=inhibition assay_value=-3.09
molecule=COc1ccc(-c2nc(N3CCCC3)[nH]c(=O)c2C#N)cc1 assay_metric=inhibition assay_value=0.79
molecule="Cc1ccc(C)c(N2CCN(CCCNC(=O)Cn3cc4c(n3)CCC(C)C4)CC2)c1 (stereo unspecified)" assay_metric=inhibition assay_value=-2.83
molecule="COc1ccccc1CNC(=O)C1CCC(CNc2c(N3CCOCC3)c(=O)c2=O)CC1 (stereo unspecified)" assay_metric=inhibition assay_value=3
molecule=COCCn1c(=O)[nH]c2cc(C(=O)NCCCN3CCN(c4ccc(F)cc4)CC3)ccc2c1=O assay_metric=inhibition assay_value=-2.38
molecule=COc1cccc(C(=O)OCn2nnc3ccccc3c2=O)c1OC assay_metric=inhibition assay_value=-3.67
molecule="CCOc1ccccc1NC(=O)C1CCCN(S(=O)(=O)c2cccc3cccnc23)C1 (stereo unspecified)" assay_metric=inhibition assay_value=1.67
molecule=Cc1c(NC(=O)c2noc3c2CCc2ccccc2-3)c(=O)n(-c2ccccc2)n1C assay_metric=inhibition assay_value=-7.21
molecule=Cc1cc(C)c2c(=O)n(CC(=O)N3CCC(Cc4ccccc4)CC3)sc2n1 assay_metric=inhibition assay_value=-2.17
molecule=CC(C)CCn1c(NCCc2ccccc2)nc2c1c(=O)n(C)c(=O)n2C assay_metric=inhibition assay_value=2.17
molecule=CCCCn1c(CN2CCN(c3ccc(F)cc3)CC2)nc2c1c(=O)n(C)c(=O)n2C assay_metric=inhibition assay_value=-5.74
molecule="COCCOC(=O)c1[nH]c2c(c1C)C(=O)CC(c1ccco1)C2 (stereo unspecified)" assay_metric=inhibition assay_value=5.67
molecule="CC1CN(c2ccc(Oc3ccccc3)cc2)c2nc3c(c(=O)n(CC(N)=O)c(=O)n3C)n2C1 (stereo unspecified)" assay_metric=inhibition assay_value=-5.17
molecule=CC(=O)C1=C(N2CCCCC2)CCC1=O assay_metric=inhibition assay_value=5.33
molecule=CCOCCCNC(=O)Cn1ncc2c(=O)oc3ccccc3c21 assay_metric=inhibition assay_value=-2.83
molecule=O=C(c1ccc2nc(N3CCCCC3)sc2c1)N1CCN(c2ccccn2)CC1 assay_metric=inhibition assay_value=1
molecule=O=C(NCCN1CCCCCC1)c1ccc(CS(=O)(=O)c2ccc(Br)cc2)o1 assay_metric=inhibition assay_value=2.5
molecule=COc1ccc(NS(=O)(=O)c2ccc(NC(C)=O)cc2)cc1OC assay_metric=inhibition assay_value=35.7
molecule=CCCc1nnc2n1N=C(c1ccc(-c3cc(Cl)ccc3Cl)o1)CS2 assay_metric=inhibition assay_value=0
molecule=COCCN(CCOC)Cc1c(C)[nH]c2ccccc2c1=O assay_metric=inhibition assay_value=-7.5
molecule=Cc1ccc2cc(CCNC(=O)C(C)C)c(=O)[nH]c2c1C assay_metric=inhibition assay_value=-1
molecule="CCC(C)NC(=O)C1c2cc(OC)c(OC)cc2C(=O)N(C)C1c1ccc(OC)cc1 (stereo unspecified)" assay_metric=inhibition assay_value=-10.2
molecule="CCN1CCN(C(c2cccs2)C(C)NC(=O)c2ccccc2)CC1 (stereo unspecified)" assay_metric=inhibition assay_value=4
molecule=Cc1ccc(S(=O)(=O)N2CCC(C(=O)N3CCN(Cc4ccccc4)CC3)CC2)cc1 assay_metric=inhibition assay_value=-0.33
molecule=COc1cc2[nH]c(=O)n(CCCCCC(=O)NCCCN3CCCC3=O)c(=O)c2cc1OC assay_metric=inhibition assay_value=-0.32
molecule=CCOC(=O)N1CCN(Cc2nc3c(c(=O)n(C)c(=O)n3C)n2Cc2ccc(F)cc2)CC1 assay_metric=inhibition assay_value=3.67
molecule=Cc1onc(-c2ccccc2Cl)c1C(=O)N1CCc2ccccc21 assay_metric=inhibition assay_value=-5.5
molecule="Cc1nc2ccc(S(=O)(=O)NC(C(=O)NCc3cccs3)C(C)C)cc2s1 (stereo unspecified)" assay_metric=inhibition assay_value=-2.67
molecule="O=C(NCCN1C(=O)C2C3C=CC(C3)C2C1=O)Nc1ccccn1 (stereo unspecified)" assay_metric=inhibition assay_value=-2.33
molecule=CCCC(=O)Nc1nc2ccc(S(N)(=O)=O)cc2s1 assay_metric=inhibition assay_value=6.33
molecule=Cc1ccnc(SCCn2c(N3CCN(Cc4ccccc4)CC3)nc3c2c(=O)[nH]c(=O)n3C)n1 assay_metric=inhibition assay_value=-4.59
molecule=Cc1cccc(OCc2nc(C#N)c(NCCN(C)C)o2)c1 assay_metric=inhibition assay_value=-2.46
molecule="CC(NC(=O)c1cc2c(=O)n(C)c3ccccc3c2n1C)c1ccc2c(c1)OCCO2 (stereo unspecified)" assay_metric=inhibition assay_value=1.33
molecule=Cc1ccc(-c2nc3cnccn3c2Nc2ccc3c(c2)OCO3)o1 assay_metric=inhibition assay_value=-2.83
molecule=Fc1ccc(-c2ccc(-c3nn4c(-c5ccco5)nnc4s3)o2)cc1 assay_metric=inhibition assay_value=4.92
molecule=O=C(c1ccc(Br)cc1)N1CCN(S(=O)(=O)c2ccccc2)CC1 assay_metric=inhibition assay_value=2.33
